B1: CAMK2A (parent)
chain: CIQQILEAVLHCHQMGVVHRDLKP

# Variants of: B1
# assay.name: protein stability index of a GFP-peptide fusion (GPS, HEK-293T) (PSI 1-6); higher = more stable;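 note: lentivirally expressed fusions sorted by FACS into six bins by GFP to DsRed ratio, PSI derived from sequencing read proportions per bin multiplied by bin number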
# condition: c terminus: a fixed tail appended
# if value of protein stability index reaches 2, tag true (1); if it stays below, tag false (0)

| sequence.input | discrete.label |
| --- | --- |
| CIQQILEAVLHCHQMGVGHRDLKP [V18G] | true (1) |
| CIQQIVEAVLHCHQMGVVHRDLKP [L6V] | true (1) |
| CIQQILEAVLHCHQMGVVHRFLKP [D21F] | true (1) |
| CIQQILEAVLHCHQMGVVHRMLKP [D21M] | true (1) |
| CIQQILEAVEHCHQMGVVHRDLKP [L10E] | false (0) |

stdin: Answer whether protein stability index of CIQQILEAVLHCHQMGPVHRDLKP [V17P] is greater than or equal to 2.
stdout: true (1)

stdin: Answer whether protein stability index of WIQQILEAVLHCHQMGVVHRDLKP [C1W] is greater than or equal to 2.
stdout: false (0)

stdin: Answer whether protein stability index of CIQQIAEAVLHCHQMGVVHRDLKP [L6A] is greater than or equal to 2.
stdout: false (0)

stdin: Answer whether protein stability index of CIQQILEAMLHCHQMGVVHRDLKP [V9M] is greater than or equal to 2.
stdout: true (1)

stdin: Answer whether protein stability index of CIQQILEKVLHCHQMGVVHRDLKP [A8K] is greater than or equal to 2.
stdout: true (1)

stdin: Answer whether protein stability index of CQQQILEAVLHCHQMGVVHRDLKP [I2Q] is greater than or equal to 2.
stdout: false (0)

stdin: Answer whether protein stability index of CIQQILEAVLHCHQMPVVHRDLKP [G16P] is greater than or equal to 2.
stdout: true (1)

stdin: Answer whether protein stability index of CIQQICEAVLHCHQMGVVHRDLKP [L6C] is greater than or equal to 2.
stdout: false (0)

stdin: Answer whether protein stability index of CIQQQLEAVLHCHQMGVVHRDLKP [I5Q] is greater than or equal to 2.
stdout: false (0)

stdin: Answer whether protein stability index of CIQQILEAVVHCHQMGVVHRDLKP [L10V] is greater than or equal to 2.
stdout: true (1)

Provenance of the data: the supplement of paper PMC10567573
